Assign zone of inhibition at 1000 µg/mL to each entry below.
Tested on: Bacillus subtilis
Experiment: Antibacterial activity against Bacillus subtilis RCMB 010067 assessed as diameter of inhibition zone at 1 mg/mL after 24 to 48 hrs by agar well diffusion method
Type: functional
Details: read-out: DIZ
Give bare numbers, in mm.

Take each entry in turn and give its zone of inhibition at 1000 µg/mL.
1. COc1cc(NS(=O)(=O)c2ccc(NC(=S)Nc3ccncc3)cc2)nc(OC)n1
2. COc1cc(NS(=O)(=O)c2ccc(NC(=S)NN3C(=O)CSC3=S)cc2)nc(OC)n1
3. COc1cc(NS(=O)(=O)c2ccc(NC(=S)Nc3nc4ccc([N+](=O)[O-])cc4s3)cc2)nc(OC)n1
4. COc1cc(NS(=O)(=O)c2ccc(NC(=S)Nc3cccc4nsnc34)cc2)nc(OC)n1
5. COc1cc(NS(=O)(=O)c2ccc(NC(=S)Nc3cc(=O)[nH]c(=O)[nH]3)cc2)nc(OC)n1

Return:
1. 15.9
2. 28.1
3. 14.1
4. 26.3
5. 26.1

Take each entry in turn and give its zone of inhibition at 1000 µg/mL.
1. COc1cc(NS(=O)(=O)c2ccc(NC(=S)Nc3nc4c(OC)cccc4s3)cc2)nc(OC)n1
2. COc1cc(NS(=O)(=O)c2ccc(NC(=S)Nc3ccc4c(C)cc(=O)oc4c3)cc2)nc(OC)n1
3. O=C(O)c1cn(C2CC2)c2cc(N3CCNCC3)c(F)cc2c1=O [CIPROFLOXACIN]
4. COc1cc(NS(=O)(=O)c2ccc(NC(=S)Nc3cnccn3)cc2)nc(OC)n1

Return:
1. 18.3
2. 23.4
3. 27.2
4. 26.4
